Recorded values, source paper PMC5905603.

Tested on: AiiE
Construct: full-length ORF (ca. 750 bp) in pET-19m, E. coli Rosetta DE3; His6 tag cut off by TEV; 240B1
Assay: phenol red proton-release assay (A557), Lineweaver-Burk
Assay type: biochemical, Enterobacter sp. CS66
Conditions: 1 mM HEPES, 200 mM NaCl, 50 uM phenol red, pH 7.5
Description: phenol red proton-release assay (A557), Lineweaver-Burk on AiiE
Quick rule: Km of at least 10 mM means MET, below that means NOT MET.

- CCCCCCCCCC(=O)N[C@H]1CCOC1=O [C10-HSL]: MET
- CCCCCCCCCCCC(=O)N[C@H]1CCOC1=O [C12-HSL]: MET
- CCCCCC(=O)N[C@H]1CCOC1=O [C6-HSL]: NOT MET
- CCCC(=O)N[C@H]1CCOC1=O [C4-HSL]: NOT MET
- CCCCCCCC(=O)N[C@H]1CCOC1=O [C8-HSL]: MET
